- assay.notes: E. coli acrAB mutant growth effects, primary screen, E. coli filamentation inducers, strain DRC39, OD650, 24 h (AID 1178);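 note: growth measured as culture turbidity by optical density at 650 nm; test concentration not given here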
- assay.setup: higher = more signal, called active from +8 up or from −8 down
measurement.label: z-score
One number for each entry.

Reference set (6 entries):
molecule=C[C@@H]1C=CCC(=O)OC[C@H](C)C(=O)N2CCC[C@H]2C(=O)OC1 recorded_value=0.686
molecule="Cc1ccc(C2CC=C(C(=O)O)CN2S(=O)(=O)c2ccc(C)cc2)cc1 (stereo not drawn)" recorded_value=-0.799
molecule=COCCCNC(=O)[C@@]1(CCS(=O)(=O)c2ccccc2)N=C(c2ccc(OCCCO)cc2)O[C@H]1c1ccccc1 recorded_value=1.34
molecule=COc1ccc(CCNC(=O)[C@@H]2c3ccccc3C(=O)N(c3ccc(C)cn3)[C@H]2c2ccc(CO)cc2)cc1 recorded_value=0.0636
molecule=C/C=C\[C@@H](NCc1ccccc1Br)[C@@H](O)Cc1ccccc1 recorded_value=-0.179
molecule=CC(C)CON=C1C[C@@H](O)[C@@H](O)[C@@H]2[C@@H]3C(=O)N([C@@H](C)c4ccccc4)C(=O)[C@@H]3CC[C@H]12 recorded_value=0.595

Record z-score per entry; entries follow.
1. CCOC(=O)NN=C1C[C@@H](O)[C@@H](O)[C@@H]2[C@@H]3C(=O)N(CC)C(=O)[C@@H]3CC[C@@H]12
2. O=C1O[C@@H](c2ccccc2)[C@@H](c2ccccc2)N2[C@@H](c3ccccc3OCCO)[C@]3(C(=O)Nc4ccc(C#CCCO)cc43)[C@@H](C(=O)O)[C@H]12

Ans.
[-0.145, 0.0701]

Source listed as PubChem BioAssay.
